system: spontaneously hypertensive rats; assay: Antihypertensive effects in spontaneously hypertensive rats, oral, tail cuff method; assay type: in vivo; conditions: 10 mg/Kg p.o.; systolic blood pressure higher than 150 mmHg
Below, each entry is listed alongside its reported Change in systolic blood pressure at stated dose p.o..
# number only, unit mmHg dropped from output

Guide cases for Change in systolic blood pressure at stated dose p.o., answers given:
SMILES DATA: COc1ccccc1OCCNCCc1ccc(OC)c(S(N)(=O)=O)c1.Cl
RECORDED MEASUREMENT: -57
--
SMILES DATA: COc1ccccc1OCCNCCc1ccc(O)c(S(N)(=O)=O)c1
RECORDED MEASUREMENT: -54

# evaluate next
// returns reported Change in systolic blood pressure at stated dose p.o. for input CCOc1ccccc1OCCNCCc1ccc(C)c(S(N)(=O)=O)c1.Cl -48

Reference source for all entries: patent US4373106A
